The reported numbers originate from BindingDB's records for doi:10.1021/jm950372w.

- ASSAYED SYSTEM: Gastrin/cholecystokinin type B receptor (Cavia porcellus)
- PROCEDURE SUMMARY: Inhibition of binding of [3H]N-Me-N-Leu-CCK-8 to cholecystokinin type B receptor in guinea pig brain cortex
pIC50: −log10 of the molar value.
Tick satisfied if pIC50 is 7 or greater. Tick not satisfied if pIC50 is less than 7.

{"columns": ["COMPOUND", "GROUP"],
 "data": [
  ["O=C(CCC(NC(=O)c1cc(Cl)cc(Cl)c1)C(=O)N1CCC2(CCCC2)CC1)N[C@H](CC1CCCCC1)C(=O)O (stereo not given in full)", "not satisfied"],
  ["O=C(CCC(NC(=O)c1cc(Cl)cc(Cl)c1)C(=O)N1CCC2(CCCC2)CC1)Nc1ccccc1C(=O)O (stereo not given)", "not satisfied"],
  ["O=C(O)CC[C@@H](NC(=O)CCC(NC(=O)c1cc(Cl)cc(Cl)c1)C(=O)N1CCC2(CCCC2)CC1)C(=O)NCCc1ccccc1 (stereo not given in full)", "not satisfied"],
  ["O=C(O)CC[C@H](NC(=O)CCC(NC(=O)c1cc(Cl)cc(Cl)c1)C(=O)N1CCC2(CCCC2)CC1)C(=O)Nc1cccc2ccccc12 (stereo not given in full)", "satisfied"],
  ["O=C(O)CC[C@H](NC(=O)CCC(NC(=O)c1cc(Cl)cc(Cl)c1)C(=O)N1CCC2(CCCC2)CC1)C(=O)NC1CCCc2ccccc21 (stereo not given in full)", "satisfied"],
  ["O=C(O)CC[C@@H](NC(=O)CCC(NC(=O)c1cc(Cl)cc(Cl)c1)C(=O)N1CCC2(CCCC2)CC1)C(=O)NCCCc1ccccc1 (stereo not given in full)", "not satisfied"],
  ["CN(CC(=O)O)C(=O)CCC(NC(=O)c1cc(Cl)cc(Cl)c1)C(=O)N1CCC2(CCCC2)CC1 (stereo not given)", "not satisfied"]
]}

Is it the case that CCCN(CCC)C(=O)[C@H](CCC(=O)O)NC(=O)CCC(NC(=O)c1cc(Cl)cc(Cl)c1)C(=O)N1CCC2(CCCC2)CC1 (stereo not given in full) has pIC50 reaching or exceeding 7?
not satisfied
